# Experiment summary: inhibition of endothelial tube formation, primary screen, imaging, VEGF stimulated, CD31 staining, tube area, NPC library (AID 1117340)
# Protocol conditions: VEGF-stimulated ADSC/ECFC co-culture, at 10 µM, stronger effect = higher value
Experimental endpoint: tube area decrease (%)
Report the figure in % without appending any unit label.

// below: answered molecules
COc1cc2c3cc1Oc1cc(ccc1O)C[C@@H]1c4c(cc(OC)c(O)c4Oc4ccc(cc4)C[C@@H]3N(C)CC2)CC[N+]1(C)C; 13.9
O=C(O)[C@@H](O)[C@H](O)[C@H](O)[C@@H](O)C(=O)O; 23.5
CN1CCCN=C1COC(=O)C(O)(c1ccccc1)C1CCCCC1 (stereo not given); -29
C[C@@H]1CN(c2c(F)c(F)c3c(=O)c(C(=O)O)cn(C4CC4)c3c2F)C[C@H](C)N1; -17.5

Pending molecule:
-- ask Output tube area decrease of "CCOc1ccc2nc3cc(N)ccc3c(N)c2c1"
-- reply 73.3

###

# Experiment summary: drug combination growth inhibition, ovarian cancer – cell-based, oncology-focused library, rucaparib conditional, profiling panel (AID 1508598)
# Protocol conditions: patient-derived ovarian cancer cells, CellTiter-Glo viability, 144 h; at 1.25 µM; OCI-C5x cells; with rucaparib 10 µM; stronger effect = lower value; 100% = cells with rucaparib alone
# key: entry, value: viability
Report the figure in % without appending any unit label.

Cc1nc(-c2ccc(OCC(C)C)c(C#N)c2)sc1C(=O)O; 108
N#Cc1ccc(C(c2ccc(C#N)cc2)n2cncn2)cc1; 107
COc1cc2c(N3CCN(C(=O)Nc4ccc(OC(C)C)cc4)CC3)ncnc2cc1OCCCN1CCCCC1; 123

-- ask Output viability of CC(c1cc2ccccc2s1)N(O)C(N)=O (stereo unspecified)
-- reply 109

-- ask Output viability of CCC(C)n1ncn(-c2ccc(N3CCN(c4ccc(OC[C@H]5CO[C@](Cn6cncn6)(c6ccc(Cl)cc6Cl)O5)cc4)CC3)cc2)c1=O (stereo partly specified)
-- reply 131

-- ask Output viability of "CC(C)(C#N)c1cc(Cn2cncn2)cc(C(C)(C)C#N)c1"
-- reply 115

###

# key: entry, value: mean signal
# Experiment summary: modulation of C. elegans fzo-1 (AID 1259413);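 note: fzo-1 mutant C. elegans worms in liquid wells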
# Protocol conditions: C. elegans fzo-1 modulator screen, mean read-out; stronger effect = higher value
Activity calls are given as the source filed them. No rule for the calls is given here.

// below: answered molecules
CCCc1nc(C)c2c(=O)[nH]c(-c3cc(S(=O)(=O)N4CCN(CC)CC4)ccc3OCC)nn12; 298 (inactive)
CCc1c2c(nc3ccc(OC(=O)N4CCC(N5CCCCC5)CC4)cc13)-c1cc3c(c(=O)n1C2)COC(=O)[C@]3(O)CC; 270 (inactive)
CCCN1CCCC[C@H]1C(=O)Nc1c(C)cccc1C; 274 (inactive)
COc1cc2nc(N3CCN(C(=O)C4CCCO4)CC3)nc(N)c2cc1OC (stereo not given); 236 (inactive)

Pending molecule:
-- ask Output mean signal of COc1cc(C(=O)NC2CCCNC2)cc(OC)c1OC (stereo not given)
-- reply 236 (inactive)

###

# key: entry, value: red/green cell ratio (normalised)
# Experiment summary: EMT-state selective cytotoxicity in co-culture – imaging, PC-3E GFP, TEM4-18 mCherry, primary screen (AID 1345086);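 note: normalised mesenchymal count divided by normalised epithelial count so high means epithelial killing; cells exposed to compound for 72 h before imaging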
# Protocol conditions: PC-3E GFP / TEM4-18 mCherry co-culture, imaging cell counts; at 1 µM; actives lie on both sides; counts scaled to control wells, 1 = unselective
Respond with the number and no other words.

// below: answered compounds
COc1cc2c3cc1Oc1cc(ccc1O)C[C@@H]1c4c(cc(OC)c(O)c4Oc4ccc(cc4)C[C@@H]3N(C)CC2)CC[N+]1(C)C; 0.97
Oc1ccc(C2CNCCc3c2cc(O)c(O)c3Cl)cc1 (stereo not drawn); 1.06
CCN(CC)C(C)CN1c2ccccc2Sc2ccccc21 (stereo not drawn); 0.85

-- ask Output red/green cell ratio (normalised) of "O=C(O)c1cc(=O)c2ccccc2o1"
-- reply 0.88

-- ask Output red/green cell ratio (normalised) of "Cc1ccsc1/C=C/C1=NCCCN1C"
-- reply 1.28
